test system: Saccharomyces cerevisiae; assay: protein stability index of tFT-peptide fusion (C-terminal peptide) (PSI (0-1 scale)); higher = more stable (slower turnover); conditions: genetic background: wild type; temperature: 37 C
Give measured protein stability index for each item. Keep answers brief.

Sequence Content: RLINCIYVLMLP
Endpoint Label: protein stability index
Observed Measurement: 0.513
//
Sequence Content: CLFFLVYELSIL
Endpoint Label: protein stability index
Observed Measurement: 0.387
//
Sequence Content: FLMLFVVLWLFL
Endpoint Label: protein stability index
Observed Measurement: 0.448
//
Sequence Content: LRVPCPPCCVFV
Endpoint Label: protein stability index
Observed Measurement: 0.43
//
Sequence Content: LFMLHFLAVLRY
Endpoint Label: protein stability index
Observed Measurement: 0.311

Quick request: protein stability index for each listed item, please.
1. WWDCAVWVRCGG
2. TDFICLLWLLHW
3. IVLCVFTVDSDF
4. SCYDYVILLQLS
5. ACVWVVALVWVF
6. LRVAWVCISIVA
7. LLVFSLLYPCLV

A.
1. 0.516
2. 0.535
3. 0.513
4. 0.393
5. 0.243
6. 0.0664
7. 0.391

====

test system: Saccharomyces cerevisiae; experiment: protein stability index of tFT-peptide fusion (C-terminal peptide) (PSI (0-1 scale)); higher = more stable (slower turnover); details: genetic background: das1 deletion; temperature: 30 C
Provide the reported protein stability index of each item.
One number for each entry.

Record excerpt, results attached:
Sequence Content: TIGWLQESLAGI [HOT1 C-terminal 12 aa]
Endpoint Label: protein stability index
Observed Measurement: 0.706

Sequence Content: MIWKWLIEDKKN [MRS2 C-terminal 12 aa]
Endpoint Label: protein stability index
Observed Measurement: 0.72

Sequence Content: DVYVLFYERVYD [UBP7 C-terminal 12 aa]
Endpoint Label: protein stability index
Observed Measurement: 0.682

Sequence Content: NDITLAVYTSAQ [EGO2 C-terminal 12 aa]
Endpoint Label: protein stability index
Observed Measurement: 0.69

Sequence Content: QIDKLLTVLDSL [RTP1 C-terminal 12 aa]
Endpoint Label: protein stability index
Observed Measurement: 0.717

Sequence Content: KKKSQNKSRKDD [PBR1 C-terminal 12 aa]
Endpoint Label: protein stability index
Observed Measurement: 0.701

Can you give me protein stability index for all of these, one by one?
1. KALRELQAEMGL [SNF7 C-terminal 12 aa]
2. HAYVIEKLPDVF [FCF1 C-terminal 12 aa]
3. RLWSRKEFRLGT [SNU71 C-terminal 12 aa]
4. WGIYEELVKRFM [HEM25 C-terminal 12 aa]
5. GLGDFGDRYYCV [FUR1 C-terminal 12 aa]
6. LALYKKAYGIEF [STP2 C-terminal 12 aa]
7. ETPLLYNDTHTP [IES5 C-terminal 12 aa]
8. KRKFLGEHRKTL [TOK1 C-terminal 12 aa]

A.
[0.696, 0.719, 0.7, 0.709, 0.711, 0.686, 0.696, 0.713]

For each of the sequences below, note its protein stability index.
1. MKHTKKLQLDKV [PKP2 C-terminal 12 aa]
2. KSLWDYVKKNTE [TAF14 C-terminal 12 aa]
3. LEKLLKTVLNTL [ORC2 C-terminal 12 aa]
4. ATVSKIIKLDRK [MYO4 C-terminal 12 aa]
5. LENTLKDSGVLQ [GPA2 C-terminal 12 aa]
6. AAVRQRREVNKK [ARO4 C-terminal 12 aa]

A.
1: 0.69; 2: 0.689; 3: 0.69; 4: 0.711; 5: 0.692; 6: 0.689

Q. Report protein stability index for SHKGFFQKLGCC [YCK1 C-terminal 12 aa] please.
A. 0.692

Provenance of the data: the supplement of paper PMC10724198
